Biological target: Botulinum neurotoxin type F light chain protease (Clostridium botulinum)
Test: Botulinum neurotoxin F protease inhibition, flow cytometry cleavage assay, confirmatory dose response (AID 651880)
Settings: multiplex microsphere flow cytometry protease cleavage assay
Activity calls are given as the source filed them. The rule behind the calls is not given here.
observed_property: EC50

molecule="CSc1ccc(C2=NN(c3ccccc3)C(c3ccccc3)C2)cc1 (configuration not stated)" result="> 20 µM (inactive)"
molecule="CSc1ccc(C2=NN(c3ccc([N+](=O)[O-])cc3)C(c3ccccc3)C2)cc1 (configuration not stated)" result="0.05 µM"
molecule="COc1ccc(N2N=C(c3ccccn3)CC2c2ccccc2)cc1 (configuration not stated)" result="> 20 µM (inactive)"
molecule="O=C(c1ccc(N2N=C(c3ccccc3)CC2c2ccccc2)cc1)N1CCOCC1 (configuration not stated)" result="> 20 µM (inactive)"
molecule="NS(=O)(=O)c1ccc(N2N=C(c3cccnc3)CC2c2ccccc2)cc1 (configuration not stated)" result="> 20 µM (inactive)"
molecule="CSc1ccc(C2=NN(c3ccc(S(N)(=O)=O)cc3)C(c3ccccc3)C2)cc1 (configuration not stated)" result="> 20 µM (inactive)"
molecule="CSc1ccc(C2=NN(c3ccc(C(=O)N4CCOCC4)cc3)C(c3ccccc3)C2)cc1 (configuration not stated)" result="> 20 µM (inactive)"
molecule="c1ccc(C2CC(c3cccnc3)=NN2c2ccccc2)cc1 (configuration not stated)" result="> 20 µM (inactive)"
molecule="COc1ccc(N2N=C(c3ccc(SC)cc3)CC2c2ccccc2)cc1 (configuration not stated)" result="> 20 µM (inactive)"
molecule="CS(=O)(=O)c1ccc(N2N=C(c3ccccc3)CC2c2ccccc2)cc1 (configuration not stated)" result="> 20 µM (inactive)"
molecule="CNC(=O)c1ccc(N2N=C(c3ccc(SC)cc3)CC2c2ccccc2)cc1 (configuration not stated)" result="> 20 µM (inactive)"
molecule="c1ccc(C2CC(c3ccccn3)=NN2c2ccccc2)cc1 (configuration not stated)" result="> 20 µM (inactive)"
molecule="COc1ccc(N2N=C(c3ccncc3)CC2c2ccccc2)cc1 (configuration not stated)" result="> 20 µM (inactive)"
molecule="CC(C)NC(=O)c1ccc(N2N=C(c3ccccc3)CC2c2ccccc2)cc1 (configuration not stated)" result="> 20 µM (inactive)"
molecule="CNC(=O)c1ccc(N2N=C(c3ccccc3)CC2c2ccccc2)cc1 (configuration not stated)" result="> 20 µM (inactive)"
molecule="COc1ccc(N2N=C(c3ccccc3)CC2c2ccccc2)cc1 (configuration not stated)" result="> 20 µM (inactive)"
molecule="O=C(c1ccc(N2N=C(c3ccccc3)CC2c2ccccc2)cc1)N1CCCCC1 (configuration not stated)" result="> 20 µM (inactive)"
molecule="CS(=O)(=O)c1ccc(N2N=C(c3cccnc3)CC2c2ccccc2)cc1 (configuration not stated)" result="> 20 µM (inactive)"
molecule="CSc1ccc(C2=NN(c3ccc(S(C)(=O)=O)cc3)C(c3ccccc3)C2)cc1 (configuration not stated)" result="> 20 µM (inactive)"
molecule="CSc1ccc(C2=NN(c3ccc(C(=O)N4CCCCC4)cc3)C(c3ccccc3)C2)cc1 (configuration not stated)" result="> 20 µM (inactive)"
molecule="CS(=O)(=O)c1ccc(N2N=C(c3ccncc3)CC2c2ccccc2)cc1 (configuration not stated)" result="> 20 µM (inactive)"
molecule="c1ccc(C2=NN(c3ccccc3)C(c3ccccc3)C2)cc1 (configuration not stated)" result="> 20 µM (inactive)"

====

Target: Botulinum neurotoxin type F light chain protease (Clostridium botulinum)
Experiment: Botulinum neurotoxin F protease inhibition, flow cytometry cleavage assay, confirmatory dose response (AID 651880)
Conditions: multiplex microsphere flow cytometry protease cleavage assay
Activity calls are given as the source filed them. How the calls were made is not given here.
Possible outcomes: active, inactive

compound="NS(=O)(=O)c1ccc(N2N=C(c3ccncc3)CC2c2ccccc2)cc1 (configuration not stated)" assigned_class=inactive
compound=c1ccc(-c2cc(-c3ccccc3)n(-c3ccccc3)n2)cc1 assigned_class=inactive
compound="NS(=O)(=O)c1ccc(N2N=C(c3ccccc3)CC2c2ccccc2)cc1 (configuration not stated)" assigned_class=inactive
compound="COc1ccc(N2N=C(c3cccnc3)CC2c2ccccc2)cc1 (configuration not stated)" assigned_class=inactive
compound="O=[N+]([O-])c1ccc(N2N=C(c3ccccc3)CC2c2ccccc2)cc1 (configuration not stated)" assigned_class=active
compound="CC(C)CNC(=O)c1ccc(N2N=C(c3ccccc3)CC2c2ccccc2)cc1 (configuration not stated)" assigned_class=inactive
compound="c1ccc(C2CC(c3ccncc3)=NN2c2ccccc2)cc1 (configuration not stated)" assigned_class=inactive
